test_method_notes: Drug concentration in plasma of mouse at 25 mg/kg, po administered as single dose after 1 hr by LC-MS/MS analysis
Type: ADME, organism-based
Listing of entries alongside the reported concentration at 1 h.
Express your answer in ng/mL, writing the number without its unit.

Memo: O=C1NCc2ccccc2C2=CN=C(NCc3c(F)ccc4c3CCO4)N3C=NC1C23 (configuration not stated) , reported concentration at 1 h: 110

---

test_method_notes: Microsomal stability in human liver microsomes assessed as half life at 100 uM preincubated for 10 mins with NADPH followed by compound addition and measured upto 30 mins by LC-MS/MS analysis
Assay type: ADME, Microsome
run_conditions: liver microsomes, time <=40 min
readout_label: half-life at 100 µM (min)
Value expressed in min; do not type the unit.

compound O=C1C2N=CN3C(NCc4c(F)ccc5c4CCO5)=NC=C(c4cnc(C(F)(F)F)cc4CN1CC(F)F)C23 (configuration not stated) , half-life at 100 µM observed: 35
